# systemUnderTest: ERα (Homo sapiens)
# Construct: endogenous in cells; host or cells: T47D
# assayText: ERα degradative activity in T47D cells (Western blot, 6 hours after administration)
# Type: cell-based
# runParameters: T47D cell line, ERα degradation
measuredParameter: DC50 (nM)

Below, each entry is followed by its recorded DC50 result.
compound="O=C1CC[C@H](N2Cc3cc(N4CCN(CC5CCN(c6ccc([C@@H]7c8ccc(O)cc8OCC7c7ccc(F)c(F)c7)cc6F)CC5)CC4)ccc3C2=O)C(=O)N1 (relative stereo)" resultvalue=9.3
compound=Cc1cc([C@H]2COc3cc(O)ccc3[C@H]2c2ccc(N3CCC(CN4CCN(c5ccc6c(c5)CN([C@H]5CCC(=O)NC5=O)C6=O)CC4)CC3)c(F)c2)ccc1F resultvalue=6.5
compound=O=C1CC[C@H](N2Cc3cc(N4CCN(CC5CCN(c6ccc([C@@H]7c8ccc(O)cc8OC[C@@H]7c7ccccc7)cc6F)CC5)CC4)c(F)cc3C2=O)C(=O)N1 resultvalue=4
compound="O=C1CC[C@H](N2C(=O)c3ccc(N4CCN(CC5CCN(c6ccc([C@@H]7c8ccc(O)cc8OCC7c7ccccc7)cc6F)CC5)CC4)cc3C2=O)C(=O)N1 (stereo in doubt)" resultvalue=12.6
compound=O=C1CC[C@H](N2Cc3cc(N4CCN(CC5CCN(c6ccc([C@@H]7c8ccc(O)cc8OC[C@@H]7c7ccccc7)cc6F)CC5)CC4)ccc3C2=O)C(=O)N1 resultvalue=0.5

[a] O=C1CC[C@H](N2Cc3cc(N4CCN(CC5CCN(c6ccc(C7c8ccc(O)cc8OC[C@@H]7c7ccccc7)cc6)CC5)CC4)ccc3C2=O)C(=O)N1 (relative stereo)
[b] COc1cccc([C@H]2COc3cc(O)ccc3[C@H]2c2ccc(N3CCC(CN4CCN(c5cc6c(cc5F)C(=O)N([C@H]5CCC(=O)NC5=O)C6)CC4)CC3)cc2)c1 (relative stereo)
Req: Between these two entries, a and b , state which has the higher DC50. Return value: the label identifying the chosen record.
Resp: b
(b: 7.3 nM, a: 2.4 nM)

----------
# systemUnderTest: ERα (Homo sapiens)
# Construct: endogenous in cells; host or cells: T47D
# assayText: ERα degradative activity in T47D cells (Western blot, 6 hours after administration)
# Type: cell-based
# runParameters: T47D cell line, ERα degradation
measuredParameter: DC50 (nM)

compound="COc1ccc(C2COc3cc(O)ccc3[C@H]2c2ccc(N3CCC(CN4CCN(c5cc6c(cc5F)C(=O)N([C@H]5CCC(=O)NC5=O)C6)CC4)CC3)cc2)cc1 (relative stereo)" resultunit=nM resultvalue=9.6
compound="O=C1CC[C@H](N2Cc3cc(N4CCN(CC5CCN(c6ccc([C@@H]7c8ccc(O)cc8OCC7c7ccccc7)cc6F)CC5)CC4)ccc3C2=O)C(=O)N1 (relative stereo)" resultunit=nM resultvalue=3

[A] COc1cc([C@H]2COc3cc(O)ccc3[C@H]2c2ccc(N3CCC(CN4CCN(c5ccc6c(c5)CN([C@H]5CCC(=O)NC5=O)C6=O)CC4)CC3)cc2)ccc1F (relative stereo)
[B] O=C1CC[C@H](N2Cc3cc(N4CCN(CC5CCN(c6ccc([C@@H]7c8ccc(O)cc8OC[C@@H]7c7ccccc7)cc6)CC5)CC4)ccc3C2=O)C(=O)N1
Req: Between these two entries, A and B , state which has the higher DC50. Return value: the label identifying the chosen record.
Resp: A
(A: 2.1 nM, B: 0.3 nM)

[A] COc1cccc([C@H]2COc3cc(O)ccc3C2c2ccc(N3CCC(CN4CCN(c5ccc6c(c5)CN([C@H]5CCC(=O)NC5=O)C6=O)CC4)CC3)cc2)c1 (relative stereo)
[B] O=C1CC[C@H](N2Cc3cc(N4CCN(CC5CCN(c6ccc([C@@H]7c8ccc(O)cc8OC[C@@H]7c7ccccc7)cc6)CC5)CC4)c(F)cc3C2=O)C(=O)N1
Req: Select one. Lower DC50: A or B Return value: the label identifying the chosen record.
Resp: B

[P] Cc1cccc([C@H]2COc3cc(O)ccc3C2c2ccc(N3CCC(CN4CCN(c5ccc6c(c5)CN([C@H]5CCC(=O)NC5=O)C6=O)CC4)CC3)c(F)c2)c1 (relative stereo)
[Q] COc1ccc(C2COc3cc(O)ccc3[C@H]2c2ccc(N3CCC(CN4CCN(c5ccc6c(c5)CN([C@H]5CCC(=O)NC5=O)C6=O)CC4)CC3)cc2)cc1 (relative stereo)
Req: Between these two entries, P and Q , state which has the higher DC50. Return value: the label identifying the chosen record.
Resp: P
(P: 5.6 nM, Q: 0.7 nM)

All values here come from patent US10800770B1.
